Reported half-life values for a set of compounds
# Assay Remarks: physchem
# Experimental Context: agar, half-lifetime .tau.1/2 from diffusion bioassay
Answer with the figure and its unit, nothing else.

CC(=O)OCN(C)N=O    19.1 h

Okay, now this compound:
*Q* Record request: half-life value, item CN(N=O)C(N)=O
*A* 0.628 h

----------
# Assay Remarks: physchem
# Experimental Context: agar, .tau.1/2 (Table 16)
Property Measured: half-life (h)
Quick reminder: number only, in h, skip the unit.

*Q* Record request: half-life value, item CCOS(C)(=O)=O [EMS, ethyl-methane-sulfonate]
*A* 14.5

----------
# Assay Remarks: physchem
# Experimental Context: ta-1538 agar
Property Measured: half-life (h)
Quick reminder: number only, in h, skip the unit.

CC(=O)Nc1ccc2c(c1)Cc1ccccc1-2 [2-AAF, a-acetyl amino fluorene]    0.446

Okay, now this compound:
*Q* Record request: half-life value, item COc1ccc2nc3cc(Cl)ccc3c(NCCCNCCCl)c2c1 [ICR-191]
*A* 2.09

Origin of values: patent US4352880A
